Test: in vitro
Details: human, hela cells, % viability
Experimental Readout: viability at 28.5 h, 10 µM (%)
Unit % implied. Number only.

Check out these entries, answers already filled in.
- Compound: "Cc1ccc(S(=O)(=O)c2cncc(N3CCNCC3)n2)cc1 [CBK051166C]"
  Units Text: "%"
  viability at 28.5 h, 10 µM: 101
- Compound: "CCn1c2c(c(=O)[nH]c1=O)C(c1ccccc1)C1=C(COC1=O)N2 (centres unmarked)"
  Units Text: "%"
  viability at 28.5 h, 10 µM: 95.6
- Compound: "Cc1cccc(OCC2CCCN(C(=O)CCc3nncn3C)C2)c1 (centres unmarked)"
  Units Text: "%"
  viability at 28.5 h, 10 µM: 88.8
- Compound: "CC(C)(CNC(=O)c1ccc(=O)n(CC(=O)Nc2ccc(F)cc2)c1)c1cccc(F)c1"
  Units Text: "%"
  viability at 28.5 h, 10 µM: 86.7
- Compound: "COc1ccc(S(=O)(=O)NC(CCSC)c2nnc3ccccn23)cc1 (centres unmarked)"
  Units Text: "%"
  viability at 28.5 h, 10 µM: 109

For NS(=O)(=O)c1ccc(Nc2c(C(=O)O)cc([N+](=O)[O-])cc2[N+](=O)[O-])cc1 the compound record lists viability at 28.5 h, 10 µM as 93

O=C(NCc1nnc(-c2cccs2)o1)C1(c2ccc(F)cc2)CC1 yielded viability at 28.5 h, 10 µM of 74.4

COc1ccc(OC)c(NC(=O)CSc2ccc(-c3ccncc3)nn2)c1 has a reported viability at 28.5 h, 10 µM of 86.6

###

Reported viability at 28.5 h, 10 µM values for a set of compounds
Experiment: in vitro
Details: human, hela cells, % viability

- Compound: "CN1[C@@H](CCC(=O)N2CCc3ccccc32)CNC(=O)[C@@H]2[C@H]1CCN2Cc1ccc(O)cc1 [CBK289021]"
  viability at 28.5 h, 10 µM: "88.9%"
- Compound: "O=C(CN1CCOCC1)N1CCN(CCc2ccccc2)CC1 [CBK200215]"
  viability at 28.5 h, 10 µM: "91.4%"
- Compound: "O=C(c1ccc(F)cc1)c1ccc(CSc2nnc3sc4ccccc4n23)cc1 [CBK265553]"
  viability at 28.5 h, 10 µM: "85.9%"
- Compound: "CCOc1ccc(S(=O)(=O)N(CC)CC(=O)O)cc1C [CBK269770]"
  viability at 28.5 h, 10 µM: "91.5%"
- Compound: "C(=C\\c1nccnc1OCCOc1ccccc1)/c1ccccc1 [CBK106885]"
  viability at 28.5 h, 10 µM: "91.6%"
- Compound: "N#CC1=C(Nc2ccccc2)Oc2cc(N)ccc2C1c1cccnc1 (stereo not shown) [CBK269435]"
  viability at 28.5 h, 10 µM: "100%"
- Compound: "CC(NC(=O)/C(=C\\c1ccc(Cl)cc1)NC(=O)c1ccco1)C(=O)O (stereo not shown) [CBK263617]"
  viability at 28.5 h, 10 µM: "93%"
- Compound: "COc1cccc(CNC(C)(C)CO)c1OCc1ccc(Cl)cc1 [CBK266552C]"
  viability at 28.5 h, 10 µM: "102%"

In plain terms, CC(C)[C@@H]1C[C@H](C(F)(F)F)n2nc(C3CCCNC3)cc2N1 (stereo partly shown) [CBK283056] has a documented viability at 28.5 h, 10 µM of 98.6%

Measured viability at 28.5 h, 10 µM of Oc1ccc2ccccc2c1Cc1c(O)ccc2ccccc12 [CBK263583] : 72.9%
